From: paper PMC10726135

Molecular target: HNF4alpha2 (COS-7 nuclear extract) (Homo sapiens, UniProt P41235 1-474)
Sequence: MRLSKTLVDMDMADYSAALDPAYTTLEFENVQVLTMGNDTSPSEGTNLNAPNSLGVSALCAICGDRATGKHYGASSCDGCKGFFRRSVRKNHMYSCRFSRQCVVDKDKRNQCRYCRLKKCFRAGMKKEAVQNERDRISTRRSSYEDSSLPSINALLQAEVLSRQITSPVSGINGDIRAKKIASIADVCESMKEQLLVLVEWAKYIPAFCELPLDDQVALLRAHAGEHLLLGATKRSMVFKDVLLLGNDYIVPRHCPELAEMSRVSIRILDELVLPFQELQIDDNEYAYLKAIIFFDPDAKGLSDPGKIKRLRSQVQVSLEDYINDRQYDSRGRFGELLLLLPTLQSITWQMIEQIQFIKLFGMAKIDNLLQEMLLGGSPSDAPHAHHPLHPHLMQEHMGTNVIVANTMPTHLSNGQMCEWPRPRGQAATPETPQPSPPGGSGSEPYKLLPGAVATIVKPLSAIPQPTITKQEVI
Experiment: protein-binding microarray; COS-7 nuclear extract on double-stranded Agilent 4x180k PBM; binding buffer, salt, pH and temperature not given in the material; high values mean tight binding
Details: chain copies: 2; label: 3' end of strand 1 on the slide; dsDNA, one strand shown
In all, about 18,000 sequences were measured (“log2 normalized intensity”: median about 0.39, highest 2% from about 6.6 on). Shown is part of a subset that was picked to be rich in the highest values.
MEASURED PROPERTY: binding signal (log2 normalized intensity)
Response body: numeric value in log2 normalized intensity, unit text excluded.

Observe how each entry below is paired with its result.
// field: binding signal; key: TTCTTCCTGTTTGACCTTCGAACCCTTGCCGCCTAGGGAGATTAGAGTATCGGTCGA ; value = 9.01

// field: binding signal; key: TGCCTTATCTGGTTCAAAGGTCATTTCTGCGCCTAGGGAGATTAGAGTATCGGTCGA ; value = 6.58

// field: binding signal; key: CCTTGACCCTTCCTCCCATTTGCTGCTCTAGCCTAGGGAGATTAGAGTATCGGTCGA ; value = 2.08

---
// field: binding signal; key: CATACTTCTTCCTGTTTGACCTTCGAACCCGCCTAGGGAGATTAGAGTATCGGTCGA ; value = 9.59

// field: binding signal; key: TTCCCTAAGATTCTGGTCAAAGGTCAATGAGCCTAGGGAGATTAGAGTATCGGTCGA ; value = 7.36

// field: binding signal; key: CCTGTTTGACCTTCGAACCCTTGCCATTTAGCCTAGGGAGATTAGAGTATCGGTCGA ; value = 7.04

// field: binding signal; key: TTGACCTTCGAACCCTTGCCATTTACATCAGCCTAGGGAGATTAGAGTATCGGTCGA ; value = 5.38

// field: binding signal; key: TAAGATTCTGGTCAAAGGTCAATGAAGCTCGCCTAGGGAGATTAGAGTATCGGTCGA ; value = 5.93

// field: binding signal; key: TTGACCTTCTCTGTTAACCCTTTGCAGCCCGCCTAGGGAGATTAGAGTATCGGTCGA ; value = 2.61

====

A collection of sequences and their measured binding signal
Target: HNF4alpha2 (COS-7 nuclear extract) (Homo sapiens, UniProt P41235 1-474)
Sequence: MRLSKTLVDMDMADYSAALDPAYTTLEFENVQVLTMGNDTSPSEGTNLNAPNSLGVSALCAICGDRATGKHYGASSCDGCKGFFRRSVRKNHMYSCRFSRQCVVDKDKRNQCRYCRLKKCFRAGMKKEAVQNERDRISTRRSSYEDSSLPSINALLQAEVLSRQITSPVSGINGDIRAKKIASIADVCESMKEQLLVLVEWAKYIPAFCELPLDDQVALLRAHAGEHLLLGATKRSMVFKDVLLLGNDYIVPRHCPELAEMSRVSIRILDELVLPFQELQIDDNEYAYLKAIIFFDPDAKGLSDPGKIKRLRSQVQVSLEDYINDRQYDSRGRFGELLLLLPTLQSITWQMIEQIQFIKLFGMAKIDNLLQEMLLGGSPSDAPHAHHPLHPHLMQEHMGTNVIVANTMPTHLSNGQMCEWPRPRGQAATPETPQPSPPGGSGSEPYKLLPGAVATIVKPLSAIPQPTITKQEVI
Assay: protein-binding microarray; COS-7 nuclear extract on double-stranded Agilent 4x180k PBM; binding buffer, salt, pH and temperature not given in the material; high values mean tight binding
Conditions: chain copies: 2; label: 3' end of strand 1 on the slide; dsDNA, one strand shown
Whole data set: some 18,000 sequences, median “log2 normalized intensity” near 0.39, cut for the highest 2% near 6.6. What follows is part of a selection rich in the highest values, with near analogues and random picks from the rest.
Response body: numeric value in log2 normalized intensity, unit text excluded.

Observe how each entry below is paired with its result.
// field: binding signal; key: CTGCCCTTCTGACCTCCCAGGGATACTGTGGCCTAGGGAGATTAGAGTATCGGTCGA ; value = 2.47

// field: binding signal; key: GTTCTGTACTTTGGAACCTGAAAGAGCAACGCCTAGGGAGATTAGAGTATCGGTCGA ; value = 3.87

// field: binding signal; key: TAGCAATAATCTTTGAAATCTGCAAATAGAGCCTAGGGAGATTAGAGTATCGGTCGA ; value = -0.0917

// field: binding signal; key: ATATTCACTATCTGATCCTTTACAGAGATAGCCTAGGGAGATTAGAGTATCGGTCGA ; value = -0.305

---
// field: binding signal; key: TGGGTTCTTGCCCTTTGGTCTGGAACACAGGCCTAGGGAGATTAGAGTATCGGTCGA ; value = 3.31

====

Target: HNF4alpha2 (COS-7 nuclear extract) (Homo sapiens, UniProt P41235 1-474)
Sequence: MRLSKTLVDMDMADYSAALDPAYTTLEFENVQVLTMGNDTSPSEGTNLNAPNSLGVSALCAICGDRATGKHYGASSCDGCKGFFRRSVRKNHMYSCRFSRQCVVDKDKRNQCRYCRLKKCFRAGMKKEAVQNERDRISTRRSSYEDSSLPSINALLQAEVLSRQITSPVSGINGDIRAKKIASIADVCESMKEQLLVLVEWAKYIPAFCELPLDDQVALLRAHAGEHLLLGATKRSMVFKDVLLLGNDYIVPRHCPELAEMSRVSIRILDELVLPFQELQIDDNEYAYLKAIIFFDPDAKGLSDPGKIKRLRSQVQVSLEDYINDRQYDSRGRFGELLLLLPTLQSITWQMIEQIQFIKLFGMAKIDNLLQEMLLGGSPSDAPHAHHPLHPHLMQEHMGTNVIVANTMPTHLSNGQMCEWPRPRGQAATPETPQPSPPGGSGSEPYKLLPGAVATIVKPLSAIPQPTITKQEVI
Experiment: protein-binding microarray; COS-7 nuclear extract on double-stranded Agilent 4x180k PBM; binding buffer, salt, pH and temperature not given in the material; high values mean tight binding
Details: chain copies: 2; label: 3' end of strand 1 on the slide; dsDNA, one strand shown
Over roughly 18,000 sequences, “log2 normalized intensity” has its median near 0.39; the highest 2% begin near 6.6. For the sample, the highest values were picked, then their nearest neighbours and some sequences at random.
Reported binding signal maps to class as: small value (below 4 log2 normalized intensity), mid value (4 log2 normalized intensity to below 6 log2 normalized intensity), large value (6 log2 normalized intensity or more)

Qu. Hi, small favor: classify GCTGCCGCAGATCCCCGCTCCCCTCCCCCAGCCTAGGGAGATTAGAGTATCGGTCGA by its binding signal when you get a moment.
Ans. large value

---
Qu. Hi, small favor: classify GCCATGGACTGCTGACCTTTGAACCCTGAGGCCTAGGGAGATTAGAGTATCGGTCGA by its binding signal when you get a moment.
Ans. large value

Qu. Hi, small favor: classify ATCTTTGACCTGGAGCATGACCCTTTGCAGGCCTAGGGAGATTAGAGTATCGGTCGA by its binding signal when you get a moment.
Ans. small value

Qu. Hi, small favor: classify AATTGACCTTTGATCACTCATGGGCAAGATGCCTAGGGAGATTAGAGTATCGGTCGA by its binding signal when you get a moment.
Ans. mid value

Qu. Hi, small favor: classify TTCTGGTCAAAGGTCAATGAAGCTCTTGCTGCCTAGGGAGATTAGAGTATCGGTCGA by its binding signal when you get a moment.
Ans. mid value

Qu. Hi, small favor: classify GTCTGCTGCCCAGACACACAATATTATGTTGCCTAGGGAGATTAGAGTATCGGTCGA by its binding signal when you get a moment.
Ans. small value

Qu. Hi, small favor: classify CTATTAGGTCTTTGAAGTTGTCTTATCACCGCCTAGGGAGATTAGAGTATCGGTCGA by its binding signal when you get a moment.
Ans. small value

Qu. Hi, small favor: classify CTCATGTGGTCCTAAGACTGACCTTTGATCGCCTAGGGAGATTAGAGTATCGGTCGA by its binding signal when you get a moment.
Ans. large value

Qu. Hi, small favor: classify CTATTGTCCTATGACCCTGCCAAATCCCCCGCCTAGGGAGATTAGAGTATCGGTCGA by its binding signal when you get a moment.
Ans. mid value

Qu. Hi, small favor: classify CAAATAAACCTTTGACCAATTGACCCTATCGCCTAGGGAGATTAGAGTATCGGTCGA by its binding signal when you get a moment.
Ans. small value

Qu. Hi, small favor: classify TTCAAATTCTTTGCCATGACCTTTGAAGCCGCCTAGGGAGATTAGAGTATCGGTCGA by its binding signal when you get a moment.
Ans. large value

Qu. Hi, small favor: classify AGAAATGTTATCTCAGTAGACTAACGTATGGCCTAGGGAGATTAGAGTATCGGTCGA by its binding signal when you get a moment.
Ans. small value

Qu. Hi, small favor: classify GCCCTTCCCCCCTCTGCAGCCTTACCCAGTGCCTAGGGAGATTAGAGTATCGGTCGA by its binding signal when you get a moment.
Ans. mid value

Qu. Hi, small favor: classify ATTCTTTGCCATGACCTTTGAAGCCCAGAAGCCTAGGGAGATTAGAGTATCGGTCGA by its binding signal when you get a moment.
Ans. mid value

Qu. Hi, small favor: classify GGCAGATATGAAAGAGCCATGGACTGCTGAGCCTAGGGAGATTAGAGTATCGGTCGA by its binding signal when you get a moment.
Ans. small value

Qu. Hi, small favor: classify CACCCCCATGCAAGTTCCCACAGAGCCCACGCCTAGGGAGATTAGAGTATCGGTCGA by its binding signal when you get a moment.
Ans. mid value

Qu. Hi, small favor: classify ATATGAAAGAGCCATGGACTGCTGACCTTTGCCTAGGGAGATTAGAGTATCGGTCGA by its binding signal when you get a moment.
Ans. large value

Qu. Hi, small favor: classify TATCTGGTTCAAAGGTCATTTCTGCTTGCAGCCTAGGGAGATTAGAGTATCGGTCGA by its binding signal when you get a moment.
Ans. mid value

Qu. Hi, small favor: classify ACAGGGCTTGGGGTGGGGTTGGAGTCCAGAGCCTAGGGAGATTAGAGTATCGGTCGA by its binding signal when you get a moment.
Ans. small value
